target: Aβ1-42 aggregates (Homo sapiens, UniProt P05067)
Construct: Preparing receptor Aβ1-42 proteins according to the existing method
Sequence (P05067 672-713 limits assumed): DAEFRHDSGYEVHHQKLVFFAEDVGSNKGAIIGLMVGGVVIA
test: In-vitro competitive binding experiment (Ki determination) with Aβ1-42 aggregates
measurement.name: Ki

# query.smiles, observed
data = [
    ("Brc1ccc(OCc2ccc(I)cc2)cn1", "163 nM"),
    ("Clc1ccc(OCc2ccc(I)cc2)cn1", "880 nM"),
]

Hello, the source for this data is patent EP3581565A1, in case you need it.
